conditions: buffer; pH 7.4; 200.0 µM
// reported solubility kinetic for each item listed
Give your result in µg/mL as a bare value.

Sample records with solubility kinetic:
MOLECULE	solubility kinetic (µg/mL)
COc1cc(NC(=O)C2CCN(c3cnccn3)CC2)cc(OC)c1	47.1
N/C(=N\OC(=O)C(c1ccccc1)c1ccccc1)c1ccncc1	47.5
Nc1ccc2c(c1)COC2=O	22.2
COc1ccc(S(N)(=O)=O)cc1C(=O)OCC(=O)Nc1ncc(Cl)c(C)c1Cl	24
O=C(COc1ccccc1Cl)NCCCNC(=O)c1cnccn1	51.5
Cc1ccc2nc(NC(=O)CC3Oc4ccccc4NC3=O)sc2c1 (stereo not given)	3.8
O=C(Cc1ccc(Br)cc1)NCCc1ccccc1	7.5
Cc1ccc(C)c(NC(=O)c2cc(C)nc3ccccc23)c1	33.5

Item under review: COc1ccc(C(=O)CNc2ccccc2Br)cc1 . Reported solubility kinetic? 5.6

Item under review: CSc1ccccc1C(=O)Nc1ccc2c(c1)CCC2 . Reported solubility kinetic? 16.8

Item under review: COc1ccc(NC(=O)N2CCCC(c3ccccc3)C2)cc1 (stereo not given) . Reported solubility kinetic? 27.8

====

settings: buffer; pH 7.4; 200.0 µM
// reported solubility kinetic for each item listed

Sample records with solubility kinetic:
COMPOUND	solubility kinetic
COc1cccc(CN(C)C(=O)c2csc3c2CCCC3)c1OC	46.5 µg/mL
COC(=O)c1ccccc1NC(=O)c1cc[n+](C)cc1	26.8 µg/mL
CC(C)(C)C(=O)NCCCNc1ccc([N+](=O)[O-])cc1	38.3 µg/mL

Item under review: CC1CCCCN1C(=O)COC(=O)Cc1c[nH]c2ccccc12 (centres undefined) . Reported solubility kinetic? > 47.2 µg/mL

Item under review: CC(=O)c1c(C)[nH]c(C(=O)OCC(=O)Nc2cccnc2Cl)c1C . Reported solubility kinetic? > 52.5 µg/mL

Item under review: CN(CC(=O)Nc1ccc(F)cc1)CC(=O)NC1CCCCC1 . Reported solubility kinetic? > 48.2 µg/mL

Item under review: Cc1nn(C)c2ncc(C(N)=O)c(Oc3cccnc3)c12 . Reported solubility kinetic? > 42.5 µg/mL

Item under review: O=C(Nc1ccc(Cl)c(Cl)c1)c1ccccc1NC(=O)C1CC=CCC1C(=O)O (centres undefined) . Reported solubility kinetic? > 65 µg/mL

Item under review: O=C(NCc1ccccc1)C(=O)Nc1cccc(C(=O)O)c1 . Reported solubility kinetic? > 44.7 µg/mL

Item under review: O=C(CSc1cccc[n+]1[O-])C12CC3CC(CC(C3)C1)C2 . Reported solubility kinetic? > 45.5 µg/mL

Item under review: COc1cc(/C=C(\C#N)C(=O)NC(C)C)cc(Cl)c1O . Reported solubility kinetic? 28.4 µg/mL

Item under review: COc1cccc2c(O)c(-c3ccccc3)c(=O)[nH]c12 . Reported solubility kinetic? > 40.1 µg/mL

Item under review: CC(=O)C1=C(O)C(=O)N(c2ccc(F)cc2)C1c1ccc(C)cc1 (centres undefined) . Reported solubility kinetic? > 48.8 µg/mL

====

details: buffer; pH 7.4; 200.0 µM
// reported solubility kinetic for each item listed
Give your result in µg/mL as a bare value.

Sample records with solubility kinetic:
COMPOUND	U	solubility kinetic
O=C1CCC(=O)N1OCCOc1ccc(Cl)c2ccccc12	µg/mL	5.3
O=C(O)c1cccc([N+](=O)[O-])c1C(=O)Nc1ccc2ccccc2c1	µg/mL	35.4
O=S(=O)(c1ccc(Cl)cc1)N1CCN(c2ccccn2)CC1	µg/mL	0.5
C=CCSc1nc2sc3c(c2c(=O)[nH]1)CC(C)(CC)OC3 (configuration not stated)	µg/mL	0.5
CCOc1cccc(C=NCCc2ccc(OC)c(OC)c2)c1O	µg/mL	45.4

Item under review: CC(=O)Nc1ccc(/C=C(\C#N)C(N)=O)cc1 . Reported solubility kinetic? 16.8

Item under review: CCCOc1ccc(C(=O)Nc2ccc3c(c2)OCO3)cc1 . Reported solubility kinetic? 1

====

conditions: buffer; pH 7.4; 200.0 µM
Decide using solubility kinetic: a value greater than or equal to 20 µg/mL is satisfied, a smaller one is not satisfied.

COMPOUND	ANSWER LABEL
Cc1cnc(C(=O)OCC(=O)C23CC4CC(CC(C4)C2)C3)cn1	satisfied
CC(=O)Nc1ccc(S(=O)(=O)NC2CC2)cc1	satisfied
CC(=O)N1CCN(C(=O)c2ccc(C)c(S(=O)(=O)N3CCCCC3)c2)CC1	satisfied
Cc1ccnc(Nc2nc(-c3ccc(O)cc3O)cs2)c1	not satisfied
CC(=O)Nc1ccc(S(=O)(=O)N2C(C)CCCC2C)cc1 (stereo not drawn)	satisfied

Dear colleague, could you confirm whether Cc1cc(NC(=O)COC(=O)c2ccc(C)c(C)c2)no1 has solubility kinetic at or above 20 µg/mL? not satisfied

Dear colleague, could you confirm whether CSCC[C@H](NC(=O)C1CCN(S(=O)(=O)c2ccc(C)cc2C)CC1)c1nc2ccccc2[nH]1 has solubility kinetic at or above 20 µg/mL? not satisfied

Dear colleague, could you confirm whether Oc1ccc(Br)cc1CNc1nccs1 has solubility kinetic at or above 20 µg/mL? not satisfied

Dear colleague, could you confirm whether CCOP(=O)(OCC)C(NC(=O)c1cccc(C)c1)C(Cl)(Cl)Cl (stereo not drawn) has solubility kinetic at or above 20 µg/mL? satisfied

Dear colleague, could you confirm whether CN1CCN(C(=O)c2cc([N+](=O)[O-])ccc2Cl)CC1 has solubility kinetic at or above 20 µg/mL? satisfied

Dear colleague, could you confirm whether CCOc1cc(/C=C2/C(=O)ON=C2C)ccc1O has solubility kinetic at or above 20 µg/mL? satisfied

Dear colleague, could you confirm whether O=C(NCCCNC(=O)c1ccccn1)c1ccc(F)cc1 has solubility kinetic at or above 20 µg/mL? satisfied

Dear colleague, could you confirm whether COc1cccc(NC(=O)Nc2nc(SC(C)(C)C)ns2)c1 has solubility kinetic at or above 20 µg/mL? not satisfied

Dear colleague, could you confirm whether Nc1nccnc1C(=O)OCC(=O)C12CC3CC(CC(C3)C1)C2 has solubility kinetic at or above 20 µg/mL? not satisfied

Dear colleague, could you confirm whether CCN(c1ccccc1)S(=O)(=O)c1ccc2ccccc2c1 has solubility kinetic at or above 20 µg/mL? not satisfied

Dear colleague, could you confirm whether O=C(c1[nH]ncc1[N+](=O)[O-])N1CCOCC1 has solubility kinetic at or above 20 µg/mL? satisfied

Dear colleague, could you confirm whether Cc1ccc(N2CN(CCC3=CCCCC3)CNC2=S)cc1 has solubility kinetic at or above 20 µg/mL? not satisfied

Dear colleague, could you confirm whether O=C(Cn1ccc([N+](=O)[O-])n1)NCC1CCCO1 (stereo not drawn) has solubility kinetic at or above 20 µg/mL? satisfied

Dear colleague, could you confirm whether Nc1n[nH]c(N)c1N=Nc1ccc(F)cc1 has solubility kinetic at or above 20 µg/mL? satisfied

Dear colleague, could you confirm whether O=C(COc1ccc2c3c(c(=O)oc2c1)CCC3)N1CCCC1 has solubility kinetic at or above 20 µg/mL? not satisfied

Dear colleague, could you confirm whether C=CCNC(=O)COC(=O)c1c2c(nc3ccccc13)CCC2 has solubility kinetic at or above 20 µg/mL? satisfied

Dear colleague, could you confirm whether CCOC(=O)c1nn(-c2ccc(Cl)cc2)c(C)cc1=O has solubility kinetic at or above 20 µg/mL? satisfied

====

conditions: buffer; pH 7.4; 200.0 µM
ASSAY METRIC: solubility kinetic

COMPOUND	solubility kinetic
CS(=O)(=O)c1ccc(Cl)c(NC(=O)CN2CCN(C(=O)c3cccs3)CC2)c1	> 66.3 µg/mL
Cc1cc(C(=O)N2C(C)CCCC2C)no1 (stereo unspecified)	> 33.3 µg/mL

Item under review: Cc1cnc(-n2c(=S)[nH]c3ccccc3c2=O)s1 . Reported solubility kinetic? > 41.3 µg/mL

Item under review: COC(=O)c1cccc(NC(=S)N2CCN(C)CC2)c1 . Reported solubility kinetic? 41.9 µg/mL

Item under review: CN(C)S(=O)(=O)c1ccc(C(=O)OCC2CCCO2)cc1 (stereo unspecified) . Reported solubility kinetic? > 47 µg/mL

Item under review: CC(=O)Nc1nc(-c2cc([N+](=O)[O-])cs2)cs1 . Reported solubility kinetic? 0.7 µg/mL

====

// reported solubility kinetic for each item listed
details: buffer; pH 7.4; 200.0 µM

Sample records with solubility kinetic:
COMPOUND	ENDPOINT RESULT
CCOc1ccccc1NC(=O)c1ccccc1NC(=O)c1ccco1	< 0.4 µg/mL
CCOC(=O)C1=C(O)C(=O)N(C2CCCCC2)C1	> 38 µg/mL
CCc1noc(C)c1C(=O)Nc1cccc2ncccc12	> 42.2 µg/mL
Cc1cccc(NC(=O)CNC(=O)c2ccccc2Cl)n1	> 45.6 µg/mL

Item under review: O=C(Cc1ccc(Br)cc1)NCCN1CCOCC1 . Reported solubility kinetic? > 49.1 µg/mL

Item under review: O=C(O)C1CCN(S(=O)(=O)c2ccc(Cl)s2)CC1 . Reported solubility kinetic? > 46.5 µg/mL

Item under review: Cc1occc1C(=O)/C(C#N)=C/c1ccc(O)c(Br)c1 . Reported solubility kinetic? > 49.8 µg/mL

Item under review: O=S(=O)(Nc1ccccc1N1CCOCC1)c1c(F)cc(F)cc1Br . Reported solubility kinetic? 2.3 µg/mL

Item under review: Cc1nn(C)cc1S(=O)(=O)NCc1ccc2c(c1)OCO2 . Reported solubility kinetic? > 46.4 µg/mL

Item under review: COc1ccc(CN2C(=O)CNC2=S)cc1 . Reported solubility kinetic? > 35.4 µg/mL

Item under review: CCOC(=O)/C(C#N)=C/N1CCOCC1 . Reported solubility kinetic? > 31.5 µg/mL

Item under review: CC1CCC2(CC1)NC(=O)N(CC(=O)Nc1cccc(S(=O)(=O)N3CCCCC3)c1)C2=O (configuration not stated) . Reported solubility kinetic? 2.2 µg/mL
